molecular target: FOF1-ATPase of WT E. coli membranes (Escherichia coli, UniProt P68699); construct: To express haploid levels of EcFOF1 containing WT-ε or ε88-stop; expressed in transfected cells; host or cells: E. coli strain XH1 (chromosomal atpC deletion) carrying pMBε1; inverted membrane vesicles; assay: biochemical; assay type: biochemical; conditions: read-out: Ki (early inhibition); WT, 38.5 mM selenite (Fig. S1 panel B)
measure: Ki (µM)
Return type: number; implicit unit µM.

In plain terms, CCC(=O)C(C)C(O)C(C)CC(C)C1OC(=O)CC2(O)CC=C(C)C(O2)C(C)=CCCCC(OC2CC(O)C(O)C(C)O2)C=CC(C)CC1C (stereo not shown) [ventB, venturicidin B] has a documented Ki of 4

---

target: FOF1-ATPase of WT E. coli membranes (Escherichia coli, UniProt P68699); construct: To express haploid levels of EcFOF1 containing WT-ε or ε88-stop; expressed in transfected cells; host or cells: E. coli strain XH1 (chromosomal atpC deletion) carrying pMBε1; inverted membrane vesicles; assay: biochemical; assay type: biochemical; conditions: read-out: Ki (early inhibition); WT, absence of selenite (Fig. S1 panel A)
measure: pKi
Expect pKi as a plain number equal to -log10 of the molar concentration.

In plain terms, CCC(=O)C(C)C(O)C(C)CC(C)C1OC(=O)CC2(O)CC=C(C)C(O2)C(C)=CCCCC(OC2CC(O)C(O)C(C)O2)C=CC(C)CC1C (stereo not shown) has a documented pKi of 5.05

---

biological target: E. coli membranes with FOF1 lacking the ε subunit's CTD (ε88-stop) (Escherichia coli, UniProt P68699); construct: To express haploid levels of EcFOF1 containing WT-ε or ε88-stop; expressed in transfected cells; host or cells: E. coli strain XH1 (chromosomal atpC deletion) carrying the ε88-stop version of pMBε1; inverted membrane vesicles; experiment: ATP hydrolysis by ε88-stop E. coli membranes, enzyme-coupled spectrophotometric assay; format: biochemical; settings: VentA at half-max. inhibition (Ki), ε88stop (Fig. 3A); early inhibition
measure: pKi
Expect pKi as a plain number equal to -log10 of the molar concentration.

In plain terms, CCC(=O)C(C)C(O)C(C)CC(C)C1OC(=O)CC2(O)CC=C(C)C(O2)C(C)=CCCCC(OC2CC(OC(N)=O)C(O)C(C)O2)C=CC(C)CC1C (stereo not shown) [ventA, venturicidin A] has a documented pKi of 6.30

---

biological target: PaFOF1 in membranes from P. aeruginosa strain PAO1 (Pseudomonas aeruginosa, UniProt Q9HT15); construct: endogenous in cells; assay: ATP hydrolysis by P. aeruginosa PAO1 membranes, enzyme-coupled spectrophotometric assay; conditions: 38.5 mM selenite; read-out: Ki (inhibition of early rate)
measure: Ki (nM)
Return type: number; implicit unit nM.

In plain terms, CCC(=O)C(C)C(O)C(C)CC(C)C1OC(=O)CC2(O)CC=C(C)C(O2)C(C)=CCCCC(OC2CC(OC(N)=O)C(O)C(C)O2)C=CC(C)CC1C (stereo not shown) has a documented Ki of 1200

---

target: FOF1-ATPase of WT E. coli membranes (Escherichia coli); construct: To express haploid levels of EcFOF1 containing WT-ε or ε88-stop; expressed in transfected cells; host or cells: E. coli strain XH1 (chromosomal atpC deletion) carrying pMBε1; inverted membrane vesicles; assay: biochemical; assay type: biochemical; details: VentA at half-max. inhibition (Ki), WT + 38.5 mM selenite (Fig. 2B); early inhibition
measure: Ki (µM)
Return type: number; implicit unit µM.

In plain terms, CCC(=O)C(C)C(O)C(C)CC(C)C1OC(=O)CC2(O)CC=C(C)C(O2)C(C)=CCCCC(OC2CC(OC(N)=O)C(O)C(C)O2)C=CC(C)CC1C (stereo not shown) has a documented Ki of 0.23
